Molecular target: Jun bZIP R261A;Fos bZIP K153A (human;human, UniProt P05412;P01100 252-315;137-200, R261A|K153A)
Sequence (P05412 252-315 R261A, chain 1 of 2): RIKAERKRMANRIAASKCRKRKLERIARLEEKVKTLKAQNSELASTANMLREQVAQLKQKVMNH
Sequence (P01100 137-200 K153A, chain 2 of 2): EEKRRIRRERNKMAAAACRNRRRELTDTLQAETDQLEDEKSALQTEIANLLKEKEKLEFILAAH
Assay: ITC
Endpoint name: Kd (nM)
Reply with just the number (in nM).

Record summary for TRE duplex 15-mer (dsDNA) DNA 1: CGCGTGACTCACCCC DNA 2: GGGGTGAGTCACGCG : reported Kd = 610
